So I've got a bunch of compounds here, and I need their pIC50 values.
Experimental System: Ba/F3 cells transformed with human Tel-TrkA (Homo sapiens)
Construct: expressed in transfected cells; host or cells: Ba/F3 murine hematopoietic progenitor cells (luciferase expressing); the other entry of the earlier key: ETV6 (P41212, Transcription factor ETV6)
Sequence (P04629 510-796 limits assumed): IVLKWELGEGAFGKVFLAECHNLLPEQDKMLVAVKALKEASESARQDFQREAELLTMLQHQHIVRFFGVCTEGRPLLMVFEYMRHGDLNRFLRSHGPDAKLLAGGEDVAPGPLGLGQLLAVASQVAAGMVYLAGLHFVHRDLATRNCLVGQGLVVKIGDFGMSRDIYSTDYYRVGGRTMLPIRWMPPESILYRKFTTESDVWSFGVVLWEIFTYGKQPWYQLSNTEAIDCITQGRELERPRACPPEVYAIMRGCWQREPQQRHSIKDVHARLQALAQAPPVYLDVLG
Experimental Details: Proliferation of Ba/F3 cells transformed with human Tel-TrkA (Ba/F3 Tel-TrkA)
Format: cell-based
Condition Notes: Table 1; 48 hours, Bright Glo luminescence; read-out: Ba/F3 Tel-TrkA
One number for each entry, as −log10 of the molar value.

Observe how each entry below is paired with its result.
{"columns": ["Compound", "Recorded Measurement"],
 "data": [
  ["CC(=O)N1CC(NC(=O)c2cnc3ccc(N4CCC[C@@H]4c4cccc(F)c4)nn23)C1 [X-64]", 6.08],
  ["CC(C)(Cc1ccc(F)cc1)NC(=O)c1cnc2ccc(N3CCC[C@@H]3c3cccc(F)c3)nn12 [X-41]", 6.28],
  ["NC(=O)c1cnc2ccc(N3C[C@@H](F)C[C@@H]3c3cc(F)cc(F)c3)nn12 [X-241]", 8.52],
  ["[2H][C@]1(c2cccc(F)c2)CCCN1c1ccc2ncc(C(N)=O)n2n1 [X-9]", 7.92]
]}

Report pIC50 for each item below.
1. O=C(NCCF)c1cnc2ccc(N3CCC[C@@H]3c3cccc(F)c3)nn12 [X-96]
2. O=C(NCCN1CCCC1=O)c1cnc2ccc(N3CCC[C@@H]3c3cccc(F)c3)nn12 [X-86]
3. O=C(NCc1cccc(F)c1)c1cnc2ccc(N3CCC[C@@H]3c3cccc(F)c3)nn12 [X-74]
4. O=C(NOC1CCCCO1)c1cnc2ccc(N3CCC[C@@H]3c3cccc(F)c3)nn12 (stereo partly shown) [X-144]

Solution:
1. 8.15
2. 6.72
3. 7.15
4. 6.89

Report pIC50 for each item below.
1. CS(=O)(=O)N1CC[C@H](NC(=O)c2cnc3ccc(N4CCC[C@@H]4c4cccc(F)c4)nn23)C1 [X-30]
2. C[C@@H]1CN(c2ccc3ncc(C#N)n3n2)[C@@H](c2cccc(F)c2)C1(F)F [X-4]
3. O=C(NC(CO)(CO)CO)c1cnc2ccc(N3CCC[C@@H]3c3cccc(F)c3)nn12 [X-101]
4. O=C(NCc1nc2ccccc2s1)c1cnc2ccc(N3CCC[C@@H]3c3cccc(F)c3)nn12 [X-38]
5. O=C(NCCN1CCOCC1)c1cnc2ccc(N3C[C@@H](F)C[C@@H]3c3cccc(F)c3)nn12 [X-113]
6. CC(C)(C)OC(=O)NCC(=O)Nc1cnc2ccc(N3CCC[C@@H]3c3cccc(F)c3)nn12 [X-192]

Solution:
1: 7.51; 2: 6.81; 3: 6.34; 4: 6.71; 5: 8.05; 6: 6.90

Report pIC50 for each item below.
1. CC(C)S(=O)(=O)N1CC[C@H](NC(=O)c2cnc3ccc(N4CCC[C@@H]4c4cccc(F)c4)nn23)C1 [X-31]
2. O=C(NCCC1CCCC1)c1cnc2ccc(N3CCC[C@@H]3c3cccc(F)c3)nn12 [X-108]
3. O=C(NC1CCC1)c1cnc2ccc(N3CCC[C@@H]3c3cccc(F)c3)nn12 [X-46]
4. CCC(=O)c1cnc2ccc(N3CCC[C@@H]3c3cccc(F)c3)nn12 [X-123]

Solution:
1. 6.91
2. 6.72
3. 7.70
4. 7.01
